The reported measurements were obtained from patent US20140323500A1.

- TARGET OR SYSTEM: human Nox4 (Homo sapiens)
- Construct: expressed in transfected cells; host or cells: T-REx-293 (hNOX4 T-REx-293), tetracycline-induced; membrane fraction
- Sequence (Q9NPH5 whole entry): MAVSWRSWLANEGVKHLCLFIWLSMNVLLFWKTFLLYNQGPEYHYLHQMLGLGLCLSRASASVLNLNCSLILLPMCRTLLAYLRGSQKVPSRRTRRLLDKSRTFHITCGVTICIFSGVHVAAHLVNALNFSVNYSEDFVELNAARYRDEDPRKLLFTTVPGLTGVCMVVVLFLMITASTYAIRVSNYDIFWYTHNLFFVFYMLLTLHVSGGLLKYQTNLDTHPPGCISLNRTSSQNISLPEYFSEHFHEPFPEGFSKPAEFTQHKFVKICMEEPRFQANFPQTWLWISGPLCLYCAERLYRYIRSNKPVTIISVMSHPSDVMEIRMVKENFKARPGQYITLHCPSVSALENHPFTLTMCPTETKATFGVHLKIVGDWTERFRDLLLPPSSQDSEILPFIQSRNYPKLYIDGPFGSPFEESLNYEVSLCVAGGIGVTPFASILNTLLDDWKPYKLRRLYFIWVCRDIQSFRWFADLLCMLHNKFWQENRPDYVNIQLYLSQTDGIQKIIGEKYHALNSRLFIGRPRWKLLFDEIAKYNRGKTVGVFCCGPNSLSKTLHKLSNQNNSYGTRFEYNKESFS
- Sequence (P13498 2-195 partner limits assumed): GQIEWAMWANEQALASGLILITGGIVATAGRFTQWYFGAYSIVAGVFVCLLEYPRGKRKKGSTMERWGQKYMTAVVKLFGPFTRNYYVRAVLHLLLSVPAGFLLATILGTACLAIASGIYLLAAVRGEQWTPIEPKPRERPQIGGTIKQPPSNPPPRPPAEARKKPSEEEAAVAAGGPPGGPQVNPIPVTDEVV
- ASSAY REMARKS: ROS production by membranes expressing human Nox4, cell-free Amplex Red assay
- Type: biochemical
- CONDITIONS USED: cell-free membranes, Amplex Red; Cheng-Prusoff; average of at least three experiments in triplicate; read-out: Ki hNox4
RESULT TYPE: Ki (nM)
Dear colleague, please return just the value in nM, with no unit written.

| COMPOUND | RESULT TYPE | UNIT LABEL | OBSERVED RESULT |
| --- | --- | --- | --- |
| O=c1c2c(-c3cc(F)ccc3F)n(Cc3ccncc3)c(=O)cc2[nH]n1-c1ccccc1Cl [(35)] | Ki | nM | 119 |
| COc1ccc(-c2c3c(=O)n(-c4ccccc4OC)[nH]c3cc(=O)n2Cc2cccnc2)c(F)c1 [Compound (1)] | Ki | nM | 75 |
| O=c1c2c(-c3ccccc3F)n(Cc3ccncc3)c(=O)cc2[nH]n1-c1ccccc1Cl [(29)] | Ki | nM | 111 |
| O=c1c2c(-c3cccc(Cl)c3F)n(Cc3cccnc3)c(=O)cc2[nH]n1-c1ccccc1Cl [(38)] | Ki | nM | 129 |
| O=c1c2c(-c3cc(F)ccc3F)n(Cc3cccnc3)c(=O)cc2[nH]n1-c1ccccc1Cl [(42)] | Ki | nM | 159 |

So what does the record say about Ki for O=c1c2c(-c3ccc(Cl)cc3)n(Cc3ccncc3)c(=O)cc2[nH]n1-c1ccccc1Cl [(18)] ?
89

---

- TARGET OR SYSTEM: human Nox4 (Homo sapiens)
- Construct: expressed in transfected cells; host or cells: T-REx-293 (hNOX4 T-REx-293), tetracycline-induced; membrane fraction
- ASSAY REMARKS: ROS production by membranes expressing human Nox4, cell-free Amplex Red assay
- Assay type: biochemical
- CONDITIONS USED: cell-free membranes, Amplex Red; Cheng-Prusoff; average of at least three experiments in triplicate; read-out: Ki hNox4
RESULT TYPE: Ki
A bare number is not enough; add the unit after it.

Recorded results for 3 compounds are shown here.
| COMPOUND | TARGET OR SYSTEM | Ki |
| --- | --- | --- |
| COc1ccccc1-n1[nH]c2cc(=O)n(Cc3cccnc3)c(-c3ccc(Cl)cc3F)c2c1=O [(8)] | human Nox4 (Homo sapiens) | 73 nM |
| O=c1c2c(-c3c(F)cccc3F)n(Cc3cccnc3)c(=O)cc2[nH]n1-c1ccccc1Cl [(40)] | human Nox4 (Homo sapiens) | 148 nM |
| O=c1c2c(-c3cccc(Cl)c3F)n(Cc3ccncc3)c(=O)cc2[nH]n1-c1ccccc1Cl [(31)] | human Nox4 (Homo sapiens) | 112 nM |

API: value(readout= Ki, system= human Nox4 (Homo sapiens), query= COc1cccc(-c2c3c(=O)n(-c4ccccc4OC)[nH]c3cc(=O)n2Cc2ccn(C)n2)c1 [(20)] )
94 nM

---

Ki listing for selected compounds.
- TARGET OR SYSTEM: human Nox2 (Homo sapiens)
- Construct: host or cells: T-REx-CHO (hNOX2 T-REx-CHO), tetracycline-induced; membrane fraction
- Sequence (P04839 2-570 limits assumed, one chain of several): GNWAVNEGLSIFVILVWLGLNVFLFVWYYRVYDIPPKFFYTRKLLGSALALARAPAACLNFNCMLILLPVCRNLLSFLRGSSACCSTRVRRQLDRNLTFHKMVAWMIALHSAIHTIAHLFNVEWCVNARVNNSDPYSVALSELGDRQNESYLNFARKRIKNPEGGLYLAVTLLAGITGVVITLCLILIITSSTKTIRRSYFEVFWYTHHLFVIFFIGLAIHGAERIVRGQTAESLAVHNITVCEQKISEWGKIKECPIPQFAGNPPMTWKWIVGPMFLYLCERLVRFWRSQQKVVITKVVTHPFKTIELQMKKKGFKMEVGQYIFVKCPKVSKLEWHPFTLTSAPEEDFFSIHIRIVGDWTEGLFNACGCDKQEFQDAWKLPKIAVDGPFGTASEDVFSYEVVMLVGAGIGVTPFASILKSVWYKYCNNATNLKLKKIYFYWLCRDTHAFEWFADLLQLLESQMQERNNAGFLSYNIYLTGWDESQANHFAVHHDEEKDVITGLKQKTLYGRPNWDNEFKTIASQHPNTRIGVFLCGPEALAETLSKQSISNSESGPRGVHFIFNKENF
- ASSAY REMARKS: ROS production by membranes expressing human Nox2, cell-free Amplex Red assay
- Assay type: biochemical
- CONDITIONS USED: cell-free membranes, Amplex Red; Cheng-Prusoff; average of at least three experiments in triplicate; read-out: Ki hNox2

| SMILES STRING | TARGET OR SYSTEM | RESULT TYPE | OBSERVED RESULT |
| --- | --- | --- | --- |
| O=c1c2c(-c3ccc(Cl)cc3F)n(Cc3cccnc3)c(=O)cc2[nH]n1-c1ccccc1Cl | human Nox2 (Homo sapiens) | Ki | 0.563 µM |
| CN(C)c1cccc(-c2c3c(=O)n(-c4ccccc4Cl)[nH]c3cc(=O)n2Cc2cccnc2)c1 | human Nox2 (Homo sapiens) | Ki | 1.5 µM |
| O=c1c2c(-c3cc(F)ccc3F)n(Cc3ccncc3)c(=O)cc2[nH]n1-c1ccccc1Cl | human Nox2 (Homo sapiens) | Ki | 0.665 µM |
| CNc1cccc(-c2c3c(=O)n(-c4ccccc4Cl)[nH]c3cc(=O)n2C)c1 | human Nox2 (Homo sapiens) | Ki | 1.83 µM |

So what does the record say about Ki for COc1ccccc1-n1[nH]c2cc(=O)n(Cc3cccnc3)c(C)c2c1=O ?
1.17 µM
